System: Fibroblast
Assay: Multiplex assay against human fibroblast
Format: toxicity, cell-based
Conditions: 48 h, 10 µM, compound concentration 10 uM, replicate 2
Some compounds, each annotated with its measured Population Mitotic Cells (%).

Here's what some known entries look like.
S=C(NCCCc1c[nH]cn1)NCCCN(Cc1ccc(Cl)c(Cl)c1)c1ccc(Br)cn1: 20%
Cc1ccc(C(=O)Nc2cccc(C(F)(F)F)c2)cc1Nc1nc(-c2cccnc2)nc2c1cnn2C: 40%
CN1C2CCC1CC(OC(c1ccc(F)cc1)c1ccc(F)cc1)C2.Cl (stereo not given): 0%

Entry CCN1CCN(Cc2ccc(Nc3ncc(F)c(-c4cc(F)c5nc(C)n(C(C)C)c5c4)n3)nc2)CC1.CS(=O)(=O)O ; Population Mitotic Cells (%) = 22%

Entry CCOc1cc2ncc(C#N)c(Nc3ccc(OCc4ccccn4)c(Cl)c3)c2cc1NC(=O)/C=C/CN(C)C ; Population Mitotic Cells (%) = 37%

###

Tested on: Fibroblast
Experiment: Multiplex assay against human fibroblast
Type: toxicity, cell-based
Conditions: 48 h, 1 µM, compound concentration 1 uM, replicate 1
endpoint label: Population Tubulin-Different-Phenotype (%)
Quick note: give the figure in %, leave out the unit.

Here's what some known entries look like.
CCCS(=O)(=O)c1nc(NC2CC2)cc(-c2ccc3c(ccn3C3CC(C)(C)NC(C)(C)C3)c2)n1: 60
O=C1NC(=O)C(c2cnc3ccccn23)=C1c1cn2c3c(cc(F)cc13)CN(C(=O)N1CCCCC1)CC2: 85
CN1C2CCC1CC(OC(c1ccc(F)cc1)c1ccc(F)cc1)C2.Cl (configuration not stated): 45

Entry CCCn1c(=O)c2[nH]c(-c3cnn(Cc4cccc(C(F)(F)F)c4)c3)nc2n(CC)c1=O ; Population Tubulin-Different-Phenotype (%) = 67

Entry O=C1N/C(=N/c2ccccc2F)S/C1=C\c1ccc(C(=O)O)cc1 ; Population Tubulin-Different-Phenotype (%) = 20

Entry CCn1c(=O)c(-c2ccc(-c3cncs3)cc2Cl)cc2cnc(Nc3ccc(N4CCN(C)CC4)cc3)nc21 ; Population Tubulin-Different-Phenotype (%) = 32

Entry CN(C)C(=O)C(CCN1CCC(O)(c2ccc(Cl)cc2)CC1)(c1ccccc1)c1ccccc1.Cl [LOPERAMIDE HYDROCHLORIDE] ; Population Tubulin-Different-Phenotype (%) = 56

Entry O=C(Nc1ccc(-n2nc(-c3cccnc3)cc2C(F)(F)F)cn1)c1ccc(-c2ccccc2)c(F)c1 ; Population Tubulin-Different-Phenotype (%) = 37

###

Some compounds, each annotated with its measured Population Pyknosed Nuclei (%).
Tested on: HEK-293T
Assay: Multiplex assay against HEK293T
Format: toxicity, cell-based
Settings: human, 12 h, 10 µM, compound concentration 10 uM, replicate 1
Quick note: give the figure in %, leave out the unit.

Cn1nc(C(F)(F)F)cc1-c1cnc(N2CCc3cc(S(=O)(=O)Nc4c(F)cc(Cl)cc4F)cc(N4CCCC4=O)c32)nc1 [TP-020]: 21
Cl.Oc1ccc2c3c1O[C@H]1c4[nH]c5c(c4C[C@@]4(O)[C@@H](C2)N(CC2CC2)CC[C@]314)C[C@@]1(O)[C@H]2Cc3ccc(O)c4c3[C@@]1(CCN2CC1CC1)[C@H]5O4: 43

Entry Cc1cc(C)c(S(=O)(=O)N(Cc2ccc(-c3cccc(S(C)(=O)=O)c3)cc2)Cc2ccc(C(F)(F)F)o2)c(C)c1 ; Population Pyknosed Nuclei (%) = 51

Entry Cc1ccc(C(=O)Nc2cccc(C(F)(F)F)c2)cc1Nc1nc(-c2cccnc2)nc2c1cnn2C ; Population Pyknosed Nuclei (%) = 75

Entry O=C(Nc1ccc(-n2nc(-c3cccnc3)cc2C(F)(F)F)cn1)c1ccc(-c2ccccc2)c(F)c1 [BI 2049] ; Population Pyknosed Nuclei (%) = 64

Entry CN1C2CCC1CC(OC(c1ccc(F)cc1)c1ccc(F)cc1)C2.Cl (configuration not stated) ; Population Pyknosed Nuclei (%) = 65

Entry CCCn1c(=O)c2[nH]c(-c3cnn(Cc4cccc(C(F)(F)F)c4)c3)nc2n(CC)c1=O [GS 6201] ; Population Pyknosed Nuclei (%) = 58

###

Tested on: HEK-293T
Assay: Multiplex assay against HEK293T
Format: toxicity, cell-based
Conditions: human, 24 h, 1 µM, compound concentration 1 uM, replicate 1
endpoint label: Population Pyknosed Nuclei (%)
Quick note: give the figure in %, leave out the unit.

Cl.O=C(c1ccc(Nc2nccc(-c3cc4ccccc4s3)n2)cc1)N1CCC(N2CCCC2)CC1: 11
COc1cc2ncnc(Nc3ccc(F)c(Cl)c3)c2cc1NC(=O)/C=C/CN1CCCCC1 [DACOMITINIB ANHYDROUS]: 37

// assay HEK-293T, entry Cc1cn(-c2cc(NC(=O)c3ccc(C)c(Nc4nccc(-c5cccnc5)n4)c3)cc(C(F)(F)F)c2)cn1 , Population Pyknosed Nuclei (%) value = 46

###

System: HEK-293T
Experiment: Incucyte cell viability with HEK293T; also: filed as whole numbers so only -1 and 0 and 1 occur
Format: toxicity, cell-based
Settings: human, 18 h, 10 µM, compound concentration 10 uM, replicate number 1, timepoint 18 hours
endpoint label: Growth Rate
Write no unit; give the number alone.

Here's what some known entries look like.
Cc1ccc2nc(CNCCCOc3ccccc3)cc(O)c2c1 [UCSF924]: 0
CCCCCNC(=O)NS(=O)(=O)c1cc([N+](=O)[O-])ccc1NC1CCCCC1: 0
CNC[C@H](O)c1cccc(O)c1 [PHENYLEPHRINE]: 0
COC(=N)c1nc2ccc3ncnc(Nc4ccc(OC)cc4F)c3c2s1: 0
CO[C@H]1CC[C@H](CNc2ccc(S(=O)(=O)NC(=O)c3ccc(N4CCN(CC5=C(c6ccc(Cl)cc6)CC(C)(C)CC5)CC4)cc3Oc3cnc4[nH]ccc4c3)cc2[N+](=O)[O-])CC1 [A-1211212]: 1

// assay HEK-293T, entry CN1CCN(C(=O)C(C)(C)c2ccc(C(=O)Nc3cn4cc(-c5cc(C(C)(C)C)cc(C(C)(C)C)c5)ccc4n3)cc2)CC1 [T3-CLK-N] , Growth Rate value = 0

// assay HEK-293T, entry CCn1cc(-c2ccnc3[nH]c(-c4cccc(CN(C)C)c4)cc23)c(-c2ccc(NC(=O)N(C)C)cc2)n1 [GSK-1070916] , Growth Rate value = 0

// assay HEK-293T, entry CC1(C)C(=O)C(C)(C)c2cc(C(=O)Nc3ccc(C(=O)O)cc3)ccc21 , Growth Rate value = 1

// assay HEK-293T, entry CC(C)(C)OC(=O)N1CCCC1CNC1CCC(c2cc(F)ccc2F)(S(=O)(=O)c2ccc(Cl)cc2)CC1 (stereo not drawn) [GSI-NC] , Growth Rate value = 1

// assay HEK-293T, entry CC[C@@H]1CN2C(=O)N(C)c3nc(-c4ccccc4)[nH]c3C2=N1.Cl , Growth Rate value = 1

// assay HEK-293T, entry Cc1nnc2c3ccccc3c(N[C@@H](C)[C@H](c3ccccc3)N(C)C)nn12 , Growth Rate value = 0

// assay HEK-293T, entry Cc1cnc(Nc2ccc(F)cc2Cl)nc1-c1c[nH]c(C(=O)N[C@H](CO)c2cccc(Cl)c2)c1 , Growth Rate value = 0

// assay HEK-293T, entry O=C1O[C@]2(CC[C@H](C(=O)Nc3ccn(-c4ccccc4F)n3)CC2)c2cnccc21 [MK-0557] , Growth Rate value = 0

// assay HEK-293T, entry CCCn1c(=O)c2[nH]c(-c3cnn(Cc4cccc(C(F)(F)F)c4)c3)nc2n(CC)c1=O [GS 6201] , Growth Rate value = 0

// assay HEK-293T, entry C=C(c1ccc(C(=O)O)cc1)c1cc2c(cc1C)C(C)(C)CCC2(C)C [BEXAROTENE] , Growth Rate value = 0

// assay HEK-293T, entry Cc1ccc(C(=O)Nc2cccc(C(F)(F)F)c2)cc1Nc1nc(-c2cccnc2)nc2c1cnn2C , Growth Rate value = 0

// assay HEK-293T, entry CN([C@@H](Cc1ccc(OS(=O)(=O)c2cccc3cnccc23)cc1)C(=O)N1CCN(c2ccccc2)CC1)S(=O)(=O)c1cccc2cnccc12 , Growth Rate value = 0

// assay HEK-293T, entry OCCn1cc(-c2cnc3nnn(Cc4ccc5ncccc5c4)c3n2)cn1 [PF-04217903] , Growth Rate value = 1

// assay HEK-293T, entry Cl.O=c1c2cccn2c2ccccc2n1CCCN1CCC(c2ccc(Cl)cc2)CC1 , Growth Rate value = 0

// assay HEK-293T, entry C[C@@H]1CN(c2cc(-c3n[nH]c4ccc(OC5(C)CC5)cc34)ncn2)C[C@H](C)O1 [MLi-2] , Growth Rate value = 1

// assay HEK-293T, entry C[C@@H](c1cccc(C#N)c1)n1cc(Cl)cc(C(N)=O)c1=N.Cl , Growth Rate value = 1

// assay HEK-293T, entry O=C(Nc1ccc(Cl)cc1)Nc1cccc(-c2cccc(N3CCCC3)n2)c1 , Growth Rate value = 0

###

Some molecules, each annotated with its measured Population Mitochondria Different-Phenotype (%).
Test system: HEK-293T
Experiment: Multiplex assay against HEK293T
Assay type: toxicity, cell-based
Settings: human, 24 h, 10 µM, compound concentration 10 uM, replicate 1
Quick note: give the figure in %, leave out the unit.

CNC(=O)c1ccc(Nc2nc(OC3CCCC3)c3c(-c4ccc5nc(C)oc5c4)c[nH]c3n2)c(OC)c1: 15
O=C1N/C(=N/c2ccccc2F)S/C1=C\c1ccc(C(=O)O)cc1: 48
CCOc1cc(C(=O)N2CCC(N3CCN(C)CC3)CC2)ccc1Nc1ncc2c(n1)N(C1CCCC1)c1ccccc1C(=O)N2C: 100
Cc1cc(C)c(S(=O)(=O)N(Cc2ccc(-c3cccc(S(C)(=O)=O)c3)cc2)Cc2ccc(C(F)(F)F)o2)c(C)c1: 74
CN(C)C(=O)C(CCN1CCC(O)(c2ccc(Cl)cc2)CC1)(c1ccccc1)c1ccccc1.Cl [LOPERAMIDE HYDROCHLORIDE]: 100

// moving on: another record for Population Mitochondria Different-Phenotype (%)
Entry O=C(Nc1ccc(Cl)cc1)Nc1cccc(-c2cccc(N3CCCC3)n2)c1 ; Population Mitochondria Different-Phenotype (%) = 50
